Values compiled from PubChem BioAssay (NCI).

- Tested on: CAKI-1 renal
- RUN DESCRIPTION: NCI-60 one-dose screen, 48 h (100 = growth as untreated, 0 = no growth, -100 = all killed)
- DETAILS: 10 µM
Compounds without any hit were thinned out: in the full panel of roughly 83,000, 20% have a hit.
Kind request: treat 90% as inclusive, so growth at 90% or higher is 1, anything lower is 0.

Enquiry: Could you please find out whether CC/C(=C(/c1ccc(O)cc1)c1ccc(OCCN(C)C(=O)CCOCCNC(=O)Cc2ccc3c(c2)CN([C@@H]2CCC(=O)NC2=O)C3=O)cc1)c1ccccc1 has growth that meets 90% or exceeds it?
Return: 1

Enquiry: Assess whether reported growth for CC/C(=C(/c1ccc(O)cc1)c1ccc(OCCN(C)C(=O)COCCOCCNC(=O)c2ccc3c(c2)CN([C@@H]2CCC(=O)NC2=O)C3=O)cc1)c1ccccc1 sits at 90% or higher.
Return: 1

Enquiry: Does growth meet or surpass 90% for CC/C(=C(/c1ccc(O)cc1)c1ccc(OCCN(C)C(=O)COCCOCCNC(=O)Cc2ccc3c(c2)CN([C@@H]2CCC(=O)NC2=O)C3=O)cc1)c1ccccc1 ?
Return: 1

Enquiry: // inclusive: growth at least 90%? input: CC/C(=C(\c1ccc(O)cc1)c1ccc(OCCNC)cc1)c1ccccc1
Return: 0

====

Can you tell me growth for the items I'm about to list?
- Tested on: HCT-116 colon
- RUN DESCRIPTION: NCI-60 one-dose screen, 48 h (100 = growth as untreated, 0 = no growth, -100 = all killed)
- DETAILS: 10 µM unless noted
This is part of a sample that, as a whole, favours compounds with a hit. Of some 83,000 tested, about 20% had one in any assay. Activity calls are given as the source filed them. Rule for the calls: active = growth percent below 10; inactive = the rest.

Entry Cc1cc(C2(c3cc(C)c(OCC(O)CNc4c(C)n(C)n(-c5ccccc5)c4=O)cc3C(C)C)OC(=O)c3ccccc32)c(C(C)C)cc1OCC(O)CNc1c(C)n(C)n(-c2ccccc2)c1=O (centres undefined) — recorded growth = 5.4% (active)

The measured growth associated with COc1ccc(NC(=O)CSc2nnc(-c3ccc(-c4nc5ccc(Cl)cc5[nH]4)cc3)o2)cc1 reads 9.94% (active)

// sample COc1c(B(O)O)cc(F)cc1-c1nc2c(F)cc3[nH]ncc3c2c2c1CCCC2 , its growth was 4.76% (active)

get_value(item= O=C(N/N=C/c1ccc(-c2cccc([N+](=O)[O-])c2)s1)c1[nH]c2ccc(Br)cc2c1-c1ccccc1 , readout=growth) returns 82.9% (inactive)

====

- Test system: OVCAR-4 ovarian
- RUN DESCRIPTION: NCI-60 one-dose screen, 48 h (100 = growth as untreated, 0 = no growth, -100 = all killed)
- DETAILS: 10 µM unless noted
About 83,000 compounds went through this panel and 20% of them were active in at least one assay; those are over-represented in the sample as a whole.
For each of the compounds below, state its growth.
Numbers only; they are read as %.

// growth lookup, compound = C/C(=N/O)c1ccc(NC(=O)CSc2nnc(-c3ccc4nc(-c5ccc(Cl)cc5)[nH]c4c3)o2)cc1 , result: 101

The recorded growth for entry COc1cc(C2CC(c3ccc(F)cc3)=Nc3c(N)nc(N)nc3N2)ccc1Oc1nc(Nc2ccc(F)cc2)nc(N(C)C)n1 (stereo unspecified) equals 23.5

Entry COc1cccc(-c2ccc(/C=N/NC(=O)c3[nH]c4ccc(Br)cc4c3-c3ccccc3)s2)c1 ; growth = 31.7

Per the record, C=CCSc1nnc(-c2ccc(-c3nc4ccc(Cl)cc4[nH]3)cc2)o1 has growth of 66.5

Looking up Cn1cc(Nc2ncnc(-c3ccc(N4CCCC4)c(C#N)c3)n2)cn1 , I see its growth listed as 78.9

Input CN1CCN(CCS(=O)(=O)Nc2cc(-c3ccc4ncnc(Nc5ccc(F)c(Cl)c5)c4c3)cnc2Cl)CC1 . Output growth: 32.3

Notebook: C#CCN(C)CCCOc1ccc(N(C)C(=O)c2cc(C(C)C)c(O)cc2O)cc1Cl , growth read as 36.1

Form field growth, entry COC(=O)c1ccc(-c2c(-c3ccccc3)c(F)c3oc(C(=O)OC)c(N)c3c2-c2ccccc2)cc1 : 97.6

Record summary for N#Cc1ccc(C(=O)NNC(=O)CSc2nc3sc4c(c3c(=O)n2-c2ccc(Cl)cc2)CCCC4)cc1 : reported growth = 73.8

The value of growth measured for the compound Nc1cc2ccccc2c(=O)n1NC(=O)c1ccccc1 turned out to be 98.6

Item: COc1cc(NC(=O)CSc2nnc(-c3ccc(-c4nc5ccc(Cl)cc5[nH]4)cc3)o2)cc(OC)c1OC | growth: 64.8

Record Cc1ccc(Nc2nnc(-c3c[nH]c4ccccc34)o2)c(C)c1 , field growth: 71.9

compound O=c1ccc(Cn2c(C(F)(F)F)cc3c(Cl)ncnc32)c[nH]1 , growth observed: -2.63

# growth of COc1ccc(C(=O)NNC(=O)CSc2nc3sc4c(c3c(=O)n2-c2ccc(Cl)cc2)CCCC4)cc1 = 78.6

growth reading for COc1ccc2[nH]c(=O)c(CSc3ccccc3Nc3nccc(-c4ccc5c(c4)OCO5)n3)cc2c1 : 61.1

What the record says about Cc1cc(C(NC(=O)CCCCCNc2cccc3c2C(=O)N(C2CCC(=O)CC2=O)C3=O)c2cccc(N(C)C)c2)c(O)c2ncccc12 (stereo unspecified) : growth is 33.2

Clc1ccc2c(NCCNC34CC5CC(CC(C5)C3)C4)ccnc2c1 has a reported growth of -57.3

growth for O=C(Nc1ccc(Cl)c(C(F)(F)F)c1)N1CCN(c2cc(-c3cn(-c4ccccc4)nc3-c3cccc(O)c3)ccn2)CC1 is 13.5

According to the records, this compound COc1ccc(-n2c(NC(=O)N3CCN(C)CC3)c(C#N)c3ccccc32)cc1 displays growth of 43.3

The compound identified as CN(C)c1nc(NCCNS(=O)(=O)c2ccc(C3=Nc4c(N)nc(N)nc4NC(c4ccc(Cl)cc4)C3)cc2)nc(N2CCOCC2)n1 (stereo unspecified) registered its growth at 66.9

Sample O=C(N/N=C/c1c[nH]c2ccccc12)Nc1ccc(F)c(Cl)c1 ; growth observed: 52.8

Per the records, this compound ( COc1c(F)ccc(C(=O)Nc2ccc3nc(NC(=O)C4CCCN(S(=O)(=O)c5ccc(C(C)(C)C)cc5)C4)sc3c2)c1F (stereo unspecified) ) has growth equal to 54

The value of growth measured for the compound c1ccc(CSc2nnc(-c3ccc4nc(-c5ccccc5)[nH]c4c3)o2)cc1 turned out to be -43.7

Record Nc1nn2c(-c3cc4cc(Br)ccc4oc3=O)ccnc2c1N=Nc1ccc(Br)cc1 , field growth: 12.8

Just so you know, measured growth for COc1ccc(-c2nc3ccc(-c4nnc(SCC(=O)Nc5ccc(/C(C)=N\O)cc5)o4)cc3[nH]2)cc1 came out at 83.3

Looking up CCN1C(=O)N(CC)C2NNC(Sc3c(C(=O)O)c4ccccc4n(CC(C)C)c3=O)=NC21 (stereo unspecified) , I found its growth recorded as 67

# growth (compound: CCOC(=O)c1ccc(NC(=S)NC(=O)c2cccc(NC(=O)c3ccc(C)cc3)c2)cc1 ) is 27.8

Field growth (entry COc1ccc(/C=C/C(=O)c2ccc(OC)c(S(N)(=O)=O)c2)c(C(F)(F)F)c1 ) reads 18.6

// recorded growth for COc1cc(NC(=O)C(C)C)ccc1C(=O)NC(=S)Nc1ccc(S(N)(=O)=O)cc1 : 98.5

COc1cc(C2CC(c3cc(OC)c(OC)c(OC)c3)=Nc3c(N)nc(N)nc3N2)ccc1Oc1nc(Nc2ccc(F)cc2)nc(N(C)C)n1 (stereo unspecified) yielded growth of 49.2

The recorded growth for COc1ccc(C(=O)/C=C/c2ccc3c(c2)OCCO3)cc1S(N)(=O)=O is 83.3

// growth value for N#Cc1c(-c2ccc(F)cc2)nc(SCc2ccc(F)cc2)nc1N1CCNCC1 : -8.59

Notebook: N/C(=N\c1nc2ccccc2s1)NC(=O)Nc1ccccc1[N+](=O)[O-] , growth read as 34.9

The reported growth of the compound Cn1cc(-c2cc(N)n3nc(-c4c[nH]c5ccccc45)cc3n2)c2cc(Cl)ccc21 was -29.3

COc1cc(C=O)ccc1OC(=O)c1cc(-c2ccc(C)cc2)n(-c2ccc(S(C)(=O)=O)cc2)n1 yielded growth of 105

// COc1ccc(-c2cc(C(=O)N=Nc3c(O)[nH]c4ccc(Cl)cc34)c3ccccc3n2)cc1 : growth value = 23.7
